- test: Metabolic stability in Sprague-Dawley rat liver microsomes assessed as parent compound remaining after 90 mins in presence of NADPH by HPLC-UV-MS analysis
- Format: ADME, Microsome
- test-settings: read-out: Stability
observation-type: remaining at 1.5 h (%)

COc1ccc2c(c1O)NC(=O)CN=C2c1cc(OC)c(OC)c(OC)c1 | 76.2
COc1ccc(/C=C\c2cc(OC)c(OC)c(OC)c2)cc1O [COMBRETASTATIN A4] | 21.6
COc1ccc2c(c1O)NC(=O)CN=C2c1cc(OC)c(OC)c([Se]C)c1 | 75.9

----------
- System: HeLa
- test: Antiproliferative activity against human HeLa cells assessed as cell growth inhibition measured after 48 hrs by MTT assay
- Type: functional, cell-based
Could you mark each record Criterion met if its IC50 falls strictly under 40 nM, and Criterion not met if it equals or exceeds it?

COc1ccc2c(c1O)NC(=O)CN=C2c1cc(OC)c(OC)c(OC)c1 | Criterion met
COc1cc(-c2cc(=O)[nH]c3c(O)c(OC)ccc23)cc(SC)c1OC | Criterion met
COc1cc(-c2cc(=O)[nH]c3c(O)c(OC)ccc23)cc([Se]C)c1OC | Criterion not met
COc1ccc2c(c1O)NC(=O)CN=C2c1cc(OC)c(OC)c(N(C)C)c1 | Criterion not met
COc1ccc2c(c1O)NC(=O)CN=C2c1cc(OC)c(OC)c([Se]C)c1 | Criterion met
COc1ccc2c(c1O)NC(=O)CN=C2c1cc(OC)c(OC)c(SC)c1 | Criterion met
COc1cc(-c2c(C)c(=O)[nH]c3c(O)c(OC)ccc23)cc(SC)c1OC | Criterion not met
COc1ccc2c(c1O)NC(=O)CN=C2c1ccc(OC)c2c1OC(C)(C)C=C2 | Criterion not met
COc1ccc2c(c1O)NC(=O)C(C)N=C2c1cc(OC)c(OC)c(SC)c1 (stereo not given) | Criterion not met
COc1ccc2c(c1O)NC(=O)CN=C2c1cc2c(c(OC)c1)OC(C)(C)C=C2 | Criterion met

----------
Below: a set of entries, each annotated with reported inhibition in vivo at 30 mg/kg.
- Tested on: A549
- test: Antitumour activity against human A549 cells xenografted in BALB/c nude mouse assessed as tumour growth inhibition at 30 mg/kg, ip administered every other day measured at day 26 by electronic caliper method relative to control
- Type: functional
- test-settings: 624 h, read-out: GI
observation-type: inhibition in vivo at 30 mg/kg

COc1cc(C2=NCC(=O)Nc3c2ccc(OC)c3OP(=O)([O-])[O-])cc(SC)c1OC.[Na+].[Na+] | 79.3%
COc1cc(C2=NCC(=O)Nc3c2ccc(OC)c3OP(=O)([O-])[O-])cc([Se]C)c1OC.[Na+].[Na+] | 89.3%
COc1cc(C2=NCC(=O)Nc3c2ccc(OC)c3OP(=O)([O-])[O-])cc(OC)c1OC.[Na+].[Na+] | 77.7%
COc1ccc(/C=C\c2cc(OC)c(OC)c(OC)c2)cc1OP(=O)([O-])[O-].[Na+].[Na+] [FOSBRETABULIN DISODIUM] | 52.8%

----------
- test: Metabolic stability in Sprague-Dawley rat liver microsomes assessed as parent compound remaining after 30 mins in presence of NADPH by HPLC-UV-MS analysis
- Type: ADME, Microsome
- test-settings: read-out: Stability
observation-type: remaining at 0.5 h (%)

COc1ccc(/C=C\c2cc(OC)c(OC)c(OC)c2)cc1O [COMBRETASTATIN A4] | 66.3
COc1ccc2c(c1O)NC(=O)CN=C2c1cc(OC)c(OC)c([Se]C)c1 | 95.6
COc1ccc2c(c1O)NC(=O)CN=C2c1cc(OC)c(OC)c(OC)c1 | 94.3

Where these numbers come from: ChEMBL document CHEMBL4359917
